experimental-system: human full-length VWF (human, UniProt P04275 764-2813)
protocol-summary: SPR, Biacore T200, antibody captured on Protein A, full-length VWF as analyte, single-cycle kinetics;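 note: running buffer HEPES pH 7.4 with 300 mM NaCl, 3 mM EDTA and 0.05% P20, about 350 RU antibody captured, in-line reference flow cell subtracted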
measurement-name: koff (s⁻¹)
Express your answer in s⁻¹, writing the number without its unit.

{"columns": ["binder", "koff (s⁻¹)"],
 "data": [
  ["3-H9_H0_L0 (antibody, human IgG1, kappa, V domains shown, humanised, human IgG1 kappa) VH: QVQLVESGGGVVQPGRSLRLSCAASGFTFSNYDMSWVRQAPGKGLEWVASIHAIGITYYANWAEGRFTISRDNSKNTLYLQMNSLRAEDTAVYYCARGLVDLNMWGQGTLVTVSS VL: DIQMTQSPSSLSASVGDRVTITCQSSQSVYSNNLLSWYQQKPGKAPKLLIYDASTLESGVPSRFSGSGSGTDFTLTISSLQPEDFATYYCQGSYYSSGWYNTFGGGTKVEIKT", "8.46e-08"],
  ["3-H9_H2_VL-par (antibody, human IgG1, kappa, V domains shown, also called 3-H9_H2 (hIgG1)) VH: QQLVESGGGVVQPGRSLRLSCAASGFSLSNYDMSWVRQAPGKGLEWIGSIHAIGITYYANWAEGRFTISRDKNTVYLQMNSLRAEDTATYFCARGLVDLNMWGQGTLVTVSS VL: AIKMTQTPSSVSVAVGGTVTINCQSSQSVYSNNLLSWYQQKPGQPPKLLIYDASTLESGVPSRFKGSGSGTQFTLTISGVQCEDAATYYCQGSYYSSGWYNTFGGGTEVVVET", "1.14e-06"]
]}

**Q:** Give the measured koff of 3-H9_H0_VL-par (antibody, human IgG1, kappa, V domains shown, also called 3-H9_H0 (hIgG1)) VH: QVQLVESGGGVVQPGRSLRLSCAASGFTFSNYDMSWVRQAPGKGLEWVASIHAIGITYYANWAEGRFTISRDNSKNTLYLQMNSLRAEDTAVYYCARGLVDLNMWGQGTLVTVSS VL: AIKMTQTPSSVSVAVGGTVTINCQSSQSVYSNNLLSWYQQKPGQPPKLLIYDASTLESGVPSRFKGSGSGTQFTLTISGVQCEDAATYYCQGSYYSSGWYNTFGGGTEVVVET .
**A:** 3.59e-07
